Please go through the items and note down their log10(IC50).
target: EGFR L858R/C797S (Homo sapiens, UniProt P00533, C797S/L858R); experiment: Biochemical EGFR kinase assay (Lance Ultra TR-FRET), double mutant L858R/C797S; conditions: Km ATP; read-out: IC50 L858R/C797S (nM) Km ATP
Sequence (P00533 25-1210 C797S/L858R): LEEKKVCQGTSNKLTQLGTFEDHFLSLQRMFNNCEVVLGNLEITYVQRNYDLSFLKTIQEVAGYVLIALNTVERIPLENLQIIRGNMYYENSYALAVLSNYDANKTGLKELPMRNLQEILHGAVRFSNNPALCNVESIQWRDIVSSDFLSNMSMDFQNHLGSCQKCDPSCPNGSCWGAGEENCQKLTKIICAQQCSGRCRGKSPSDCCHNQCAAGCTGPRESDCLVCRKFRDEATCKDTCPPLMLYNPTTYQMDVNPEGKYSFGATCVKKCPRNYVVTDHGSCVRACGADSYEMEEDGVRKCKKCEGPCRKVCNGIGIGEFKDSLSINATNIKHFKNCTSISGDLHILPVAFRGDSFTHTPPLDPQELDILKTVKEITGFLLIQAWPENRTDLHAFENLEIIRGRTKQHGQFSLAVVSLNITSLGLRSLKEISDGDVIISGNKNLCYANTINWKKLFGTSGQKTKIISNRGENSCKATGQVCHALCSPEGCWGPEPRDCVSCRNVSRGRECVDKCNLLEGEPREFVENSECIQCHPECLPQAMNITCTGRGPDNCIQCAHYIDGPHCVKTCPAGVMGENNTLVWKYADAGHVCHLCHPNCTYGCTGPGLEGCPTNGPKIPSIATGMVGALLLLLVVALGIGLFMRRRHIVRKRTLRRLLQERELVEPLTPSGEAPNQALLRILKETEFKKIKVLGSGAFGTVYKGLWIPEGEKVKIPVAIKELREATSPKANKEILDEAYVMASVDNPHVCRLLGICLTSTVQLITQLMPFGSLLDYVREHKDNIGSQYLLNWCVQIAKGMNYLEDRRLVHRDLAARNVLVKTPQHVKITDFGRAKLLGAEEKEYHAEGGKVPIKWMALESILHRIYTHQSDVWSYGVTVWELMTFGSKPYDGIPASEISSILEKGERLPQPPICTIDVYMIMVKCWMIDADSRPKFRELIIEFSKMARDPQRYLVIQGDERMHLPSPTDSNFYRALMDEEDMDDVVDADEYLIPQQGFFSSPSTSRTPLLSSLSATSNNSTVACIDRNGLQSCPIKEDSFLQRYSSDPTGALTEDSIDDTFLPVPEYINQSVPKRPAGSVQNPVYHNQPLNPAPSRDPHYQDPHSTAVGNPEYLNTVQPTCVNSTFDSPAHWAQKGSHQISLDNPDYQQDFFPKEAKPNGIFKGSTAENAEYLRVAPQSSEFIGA
Log scale reminder: IC50 in nM, then log10 taken.

Examples from the recorded data:
Cc1nn(CC(F)(F)F)cc1-c1nccc(Nc2cc(N[C@H]3CC[C@@](C)(O)CC3)c(-c3ccn(C(F)F)n3)cn2)n1 [Example 320] = 0.26
O=S(=O)(C1CC1)n1cc(-c2nccc(Nc3cc(NC4CCCC(F)C4)c(-c4ccn(C(F)F)n4)cn3)n2)cn1 (centres unmarked) [Example 181] = 1.12
CN(C)CCCn1ccc(-c2cnc(Nc3ccnc(-c4cnn(S(=O)(=O)C5CC5)c4)n3)cc2N[C@H]2CC[C@@H](C(C)(C)O)CC2)n1 [Example 278] = -0.52
Cn1ccc(-c2cnc(Nc3ccnc(-c4cnn(S(=O)(=O)C5CC5)c4)n3)cc2N[C@H]2CC[C@@H](CCO)CC2)n1 [Example 136] = -0.70
CN(C)C(=O)[C@H]1CC[C@@H](Nc2cc(Nc3ccnc(-c4cnn(S(=O)(=O)C5CC5)c4)n3)ncc2-c2cc(C(F)(F)F)n(C)n2)CC1 [Example 257] = 0.72
O=S(=O)(C1CC1)n1cc(-c2nccc(Nc3cc(N[C@H]4CC[C@@H](CC(F)F)CC4)c(-c4ccn(C(F)F)n4)cn3)n2)cn1 [Example 185] = 1.77
Cn1nc(-c2cnc(Nc3ccnc(-c4cnn(S(=O)(=O)C5CC5)c4)n3)cc2NN2CCC(O)CC2)cc1C(F)(F)F [Example 160] = 0.00
O=S(=O)(C1CC1)n1cc(-c2nccc(Nc3cc(NC4CCCCC4O)c(-c4ccn(C(F)F)n4)cn3)n2)cn1 (centres unmarked) [Example 28] = 1.34
CC(C)(O)[C@H]1CC[C@@H](Nc2cc(Nc3ccnc(-c4cnn(S(=O)(=O)C5CC5)c4)n3)ncc2-c2ccn(CC(F)(F)F)n2)CC1 [Example 265] = 0.82
C[C@]1(O)CC[C@@H](Nc2cc(Nc3ccnc(-c4cnn(S(=O)(=O)C5CC5)c4)n3)ncc2-c2ccn(CC(F)F)n2)CC1 [Example 241] = -0.30

Give log10(IC50) for each listed item.
1. O=S(=O)(C1CC1)n1cc(-c2nccc(Nc3cc(NC[C@H]4CC[C@@H](O)C4)c(-c4ccn(CC(F)(F)F)n4)cn3)n2)cn1 [Example 268]
2. C[C@]1(O)CC[C@@H](Nc2cc(Nc3ccnc(-c4cnn(S(=O)(=O)C5CC5)c4)n3)ncc2-n2ccc(C(F)(F)F)n2)CC1 [Example 167]
3. COc1ccc(-c2nccc(Nc3cc(N[C@H]4CC[C@@](C)(O)CC4)c(-c4ccn(C(F)F)n4)cn3)n2)c(F)n1 [Example 166]
4. Cc1nn(CC(F)F)c(C)c1-c1nccc(Nc2cc(N[C@H]3CC[C@@](C)(O)CC3)c(-c3ccn(C(F)F)n3)cn2)n1 [Example 321]
5. C[C@]1(O)CC[C@H](CNc2cc(Nc3ccnc(-c4cnn(S(=O)(=O)C5CC5)c4)n3)ncc2-c2ccn(C(F)F)n2)CC1 [Example 36]
6. CN(C)C[C@H]1CC[C@@H](Nc2cc(Nc3ccnc(-c4cnn(S(=O)(=O)C5CC5)c4)n3)ncc2-c2ccn(C)n2)CC1 [Example 226]

1. 0.51
2. 1.68
3. 2.30
4. 1.02
5. 0.59
6. -1.00

Write down the reported log10(IC50) of CN(C)S(=O)(=O)n1ccc(-c2nccc(Nc3cc(N[C@H]4CC[C@@](C)(O)CC4)c(-c4ccn(C(F)F)n4)cn3)n2)c1 [Example 109] , test system: EGFR L858R/C797S (Homo sapiens, UniProt P00533, C797S/L858R).
1.16

---

Hi there, I'd appreciate the recorded pIC50 for every entry that follows.
biological target: EGFR del19/T790M/C797S (Homo sapiens, UniProt P00533, C797S/DEL746-750/T790M); test: Biochemical EGFR kinase assay (Lance Ultra TR-FRET), triple mutant del19/T790M/C797S; settings: Km ATP; read-out: IC50 del19/T790M/C797S, Km ATP
Sequence (P00533 with tags, fused parts or gaps DEL746-750/T790M/C797S): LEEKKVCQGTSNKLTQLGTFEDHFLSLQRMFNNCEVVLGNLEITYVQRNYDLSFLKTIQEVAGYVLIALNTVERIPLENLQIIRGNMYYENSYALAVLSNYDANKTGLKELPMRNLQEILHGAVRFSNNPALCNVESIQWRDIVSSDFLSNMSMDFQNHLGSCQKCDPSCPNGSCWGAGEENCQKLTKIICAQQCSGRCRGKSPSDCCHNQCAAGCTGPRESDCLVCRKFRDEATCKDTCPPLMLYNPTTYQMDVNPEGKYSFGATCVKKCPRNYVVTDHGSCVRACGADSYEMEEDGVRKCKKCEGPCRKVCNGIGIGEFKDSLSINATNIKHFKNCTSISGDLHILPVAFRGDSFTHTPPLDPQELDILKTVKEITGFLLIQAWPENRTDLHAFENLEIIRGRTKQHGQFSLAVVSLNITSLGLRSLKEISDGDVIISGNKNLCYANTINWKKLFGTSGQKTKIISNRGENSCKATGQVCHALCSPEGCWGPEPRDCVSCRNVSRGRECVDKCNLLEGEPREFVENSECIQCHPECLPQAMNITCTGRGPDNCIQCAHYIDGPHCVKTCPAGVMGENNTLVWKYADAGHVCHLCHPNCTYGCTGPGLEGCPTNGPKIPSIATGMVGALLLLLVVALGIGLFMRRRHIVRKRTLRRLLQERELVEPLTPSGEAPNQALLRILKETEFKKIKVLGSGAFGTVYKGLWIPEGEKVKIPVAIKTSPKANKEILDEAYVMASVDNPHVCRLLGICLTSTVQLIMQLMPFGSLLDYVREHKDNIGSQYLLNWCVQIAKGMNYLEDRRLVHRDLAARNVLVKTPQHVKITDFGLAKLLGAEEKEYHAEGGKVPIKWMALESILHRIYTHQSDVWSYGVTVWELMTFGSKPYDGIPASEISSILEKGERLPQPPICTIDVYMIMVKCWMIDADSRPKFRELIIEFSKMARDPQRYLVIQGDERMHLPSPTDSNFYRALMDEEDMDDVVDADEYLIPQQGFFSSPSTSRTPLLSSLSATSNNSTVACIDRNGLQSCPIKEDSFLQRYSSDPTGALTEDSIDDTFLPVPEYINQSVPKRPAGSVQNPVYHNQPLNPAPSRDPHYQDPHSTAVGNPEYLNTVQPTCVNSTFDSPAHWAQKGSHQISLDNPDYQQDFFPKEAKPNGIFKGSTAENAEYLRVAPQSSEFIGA
One number for each entry, as −log10 of the molar value.

Field: example entries. Status: answers known.
OCC[C@H]1CC[C@@H](Nc2cc(Nc3ccnc(-c4cnn(CC(F)F)c4)n3)ncc2-c2ccn(CC(F)(F)F)n2)CC1 = 9.15
Cc1nn(CC(F)(F)F)cc1-c1cc(Nc2ncc(-c3ccn(C(F)F)n3)c(N[C@H]3CC[C@@](C)(O)CC3)n2)ccn1 = 8.72
C[C@]1(O)CC[C@@H](Nc2nc(Nc3ccnc(-c4cnn(S(=O)(=O)C5CC5)c4)c3)ncc2-c2ccn(CCC(F)(F)F)n2)CC1 = 9.22
COCn1ccc(-c2cnc(Nc3ccnc(-c4cnn(S(=O)(=O)C5CC5)c4)c3)nc2N[C@H]2CC[C@@](C)(O)CC2)n1 = 9.70
Cn1nc(-c2cnc(Nc3ccnc(-c4cnn(CC(F)F)c4)n3)cc2N[C@H]2CC[C@@H](CCO)CC2)cc1C(F)(F)F = 8.36
C[C@]1(O)CC[C@@H](Nc2cc(Nc3ccnc(-c4cnn(CC(F)F)c4)n3)ncc2-c2ccn(CC(F)F)n2)CC1 = 10.00
C[C@]1(O)CC[C@@H](Nc2cc(Nc3ccnc(-c4cnn(S(=O)(=O)C5CC5)c4)n3)ncc2-n2cccn2)CC1 = 9.70
Cn1nc(-c2cnc(Nc3ccnc(-c4cnn(S(=O)(=O)C5CC5)c4)c3)nc2N[C@H]2CC[C@@](C)(O)CC2)cc1C(F)(F)F = 8.96

I have 5 compounds here; please give me pIC50 for each one.
1. FC(F)Cn1cc(-c2nccc(Nc3cc(N[C@H]4CC[C@@H](F)CC4)c(-c4ccn(CC(F)(F)F)n4)cn3)n2)cn1
2. C[C@]1(O)CC[C@@H](Nc2cc(Nc3ccnc(N4CCC[C@H](O)C4)n3)ncc2-c2ccn(C(F)F)n2)CC1
3. C[C@]1(O)CC[C@@H](Nc2nc(Nc3ccnc(-c4cnn(S(=O)(=O)C5CC5)c4)c3)ncc2-c2ccn(C(F)F)n2)CC1
4. O=S(=O)(C1CC1)n1cc(-c2cc(Nc3ncc(-c4ccn(C(F)F)n4)c(N[C@H]4CC[C@@H](CO)CC4)n3)ccn2)cn1
5. O=S(=O)(C1CC1)n1cc(-c2nccc(Nc3cc(N[C@H]4C[C@@H](CO)C4)c(-c4ccn(C(F)F)n4)cn3)n2)cn1

1: 8.54; 2: 8.57; 3: 9.15; 4: 9.40; 5: 9.70

Could you tell me pIC50 for each of these compounds? They are listed below.
1. C[C@]1(O)CC[C@@H](Nc2cc(Nc3nc(-c4cnn(S(=O)(=O)C5CC5)c4)ncc3F)ncc2-c2ccn(CC(F)F)n2)CC1
2. CC1(O)CCC(Nc2cc(Nc3ccnc(N4CCC(O)C(F)(F)C4)n3)ncc2-c2ccn(C(F)F)n2)CC1 (stereo not drawn)
3. O=S(=O)(C1CC1)n1cc(-c2cc(Nc3ncc(-c4ccn(CC(F)(F)F)n4)c(N[C@H]4CC[C@@H](F)CC4)n3)ccn2)cn1
4. O=S(=O)(C1CC1)n1cc(-c2cc(Nc3ncc(-c4ccn(CCC(F)(F)F)n4)c(N[C@H]4CC[C@@H](F)CC4)n3)ccn2)cn1

[9.40, 9.30, 8.07, 7.77]

---

Assignment: determine reported log10 of IC50 for the given compounds.
target: EGFR L858R/C797S (Homo sapiens, UniProt P00533, C797S/L858R); test: Biochemical EGFR kinase assay (Lance Ultra TR-FRET), double mutant L858R/C797S; conditions: Km ATP; read-out: IC50 L858R/C797S (nM) Km ATP
Each number you see is log10 of IC50, and the unit inside the log is nM.

O=S(=O)(C1CC1)n1cc(-c2nccc(Nc3cc(N[C@H]4CC[C@@H](CO)CC4)c(-c4ccn(C(F)F)n4)cn3)n2)cn1 = 0.28

Items follow; give log10 of IC50 for each.
1. CN[C@H]1CC[C@@H](Oc2cc(Nc3ccnc(-c4cnn(S(=O)(=O)C5CC5)c4)n3)ncc2-c2ccn(C(F)F)n2)CC1
2. Cn1ccc(-c2cnc(Nc3ccnc(-c4cnn(S(=O)(=O)C5CC5)c4)n3)cc2N[C@H]2CCC[C@H](CO)C2)n1
3. CN[C@H]1CC[C@@H](Oc2cc(Nc3ccnc(-c4cnn(S(=O)(=O)C5CC5)c4)n3)ncc2-c2cnn(C(F)F)c2)CC1

1. 1.53
2. -0.05
3. 1.17

---

molecular target: EGFR wildtype (WT) (Homo sapiens, UniProt P00533); test: Biochemical EGFR kinase assay (Lance Ultra TR-FRET), wildtype; conditions: Km ATP; read-out: IC50 WT (nM) Km ATP
Sequence (P00533 25-1210): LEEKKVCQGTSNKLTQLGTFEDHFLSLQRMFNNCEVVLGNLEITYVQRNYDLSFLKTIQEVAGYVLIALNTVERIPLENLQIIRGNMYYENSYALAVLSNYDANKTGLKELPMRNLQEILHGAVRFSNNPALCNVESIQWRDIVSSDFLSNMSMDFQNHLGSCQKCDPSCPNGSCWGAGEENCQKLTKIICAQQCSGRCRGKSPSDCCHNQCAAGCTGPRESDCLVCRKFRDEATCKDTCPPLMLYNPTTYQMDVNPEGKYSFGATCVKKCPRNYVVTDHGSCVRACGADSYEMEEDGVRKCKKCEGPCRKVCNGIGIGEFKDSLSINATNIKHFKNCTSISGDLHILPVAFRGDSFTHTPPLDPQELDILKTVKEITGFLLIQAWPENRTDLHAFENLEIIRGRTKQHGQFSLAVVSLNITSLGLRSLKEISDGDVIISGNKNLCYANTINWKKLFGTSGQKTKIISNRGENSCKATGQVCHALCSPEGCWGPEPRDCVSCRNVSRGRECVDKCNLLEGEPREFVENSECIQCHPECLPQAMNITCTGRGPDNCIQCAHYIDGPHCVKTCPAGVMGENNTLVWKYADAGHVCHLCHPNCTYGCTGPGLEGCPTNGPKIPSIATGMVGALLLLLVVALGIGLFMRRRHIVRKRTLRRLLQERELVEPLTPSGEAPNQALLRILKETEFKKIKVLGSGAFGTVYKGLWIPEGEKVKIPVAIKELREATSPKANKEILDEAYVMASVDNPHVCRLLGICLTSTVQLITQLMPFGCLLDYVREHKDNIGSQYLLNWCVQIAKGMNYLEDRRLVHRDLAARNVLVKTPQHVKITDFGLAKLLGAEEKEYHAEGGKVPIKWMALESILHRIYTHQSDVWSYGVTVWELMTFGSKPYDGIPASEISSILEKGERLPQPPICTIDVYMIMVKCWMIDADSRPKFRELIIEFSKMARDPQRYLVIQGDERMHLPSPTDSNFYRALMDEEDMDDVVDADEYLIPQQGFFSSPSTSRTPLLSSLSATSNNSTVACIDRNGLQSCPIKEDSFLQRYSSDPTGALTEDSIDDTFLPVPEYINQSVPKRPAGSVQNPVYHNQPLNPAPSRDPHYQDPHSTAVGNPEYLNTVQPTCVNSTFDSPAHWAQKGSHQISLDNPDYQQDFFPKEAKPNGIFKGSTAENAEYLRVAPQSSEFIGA
Hi there, I'd appreciate the recorded IC50 for every entry that follows.
Give bare numbers, in nM.

CN(C)S(=O)(=O)n1ccc(-c2nccc(Nc3cc(N[C@H]4CC[C@@](C)(O)CC4)c(-c4ccn(C(F)F)n4)cn3)n2)c1 = 538

Items follow; give IC50 for each.
1. O=S(=O)(C1CC1)n1cc(-c2nccc(Nc3cc(NC[C@H]4CC[C@@H](O)CC4)c(-c4ccn(C(F)F)n4)cn3)n2)cn1
2. C[C@]1(O)CC[C@@H](Nc2cc(Nc3ccnc(-c4cnn(S(=O)(=O)C5CC5)c4)n3)ncc2-c2nc(C(F)F)cs2)CC1
3. O=S(=O)(C1CC1)n1cc(-c2nccc(Nc3cc(NC4CCC(CCF)CC4)c(-c4ccn(C(F)F)n4)cn3)n2)cn1 (stereo not drawn)
4. Cc1nn(C)c(F)c1-c1nccc(Nc2cc(N[C@H]3CC[C@@](C)(O)CC3)c(-c3ccn(C(F)F)n3)cn2)n1
5. Cc1nn(-c2cnc(Nc3ccnc(-c4cnn(S(=O)(=O)C5CC5)c4)n3)cc2N[C@H]2CC[C@@](C)(O)CC2)cc1C(F)(F)F

15.4
9
276
184
781
